- target_entity: T1, human Trop-2 on Trop-2 positive cancer cells (human, UniProt P09758 27-323)
- T1 sequence (looked up): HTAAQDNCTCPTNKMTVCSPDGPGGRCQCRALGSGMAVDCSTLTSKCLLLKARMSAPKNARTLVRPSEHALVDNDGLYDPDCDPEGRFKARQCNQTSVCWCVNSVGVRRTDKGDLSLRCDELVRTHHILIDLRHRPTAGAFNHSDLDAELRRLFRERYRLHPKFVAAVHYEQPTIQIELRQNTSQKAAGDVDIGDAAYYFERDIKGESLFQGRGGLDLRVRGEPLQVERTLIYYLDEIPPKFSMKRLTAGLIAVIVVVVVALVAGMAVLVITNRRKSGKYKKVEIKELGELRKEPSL
- assay_notes: cell-based or functional assay
measurement_label: Internalization rate (flow cytometry, MDA-MB-468 cells) (%)

binder	scale_unit	reading
humanized #125-1-5 Hu1/Lu5 (antibody, V domains shown) VH: QVQLVQSGAEVKKPGASVKVSCKASGYTFTTYVIHWVRQAPGQRLEWMGYINPNNDGTKYNEKFKGRVTITRDTSASTAYMELSSLRSEDTAVYYCARPHFETHAMDYWGQGTLVTVSS VL: DIQMTQSPSSLSASVGDRVTITCKASEDIFNRLAWYQQKPGKAPKLLLYGATSLETGVPSRFSGSGSGTDYTLTISSLQPEDFATYYCQQYWNTWTFGQGTKVEIK	%	49.7
humanized #125-1-5 Hu4/Lu5 (antibody, V domains shown, Humanized antibody) VH: QVQLVQSGAEVKKPGASVKMSCKASGYTFTTYVIHWVRQAPGQRLEWIGYINPNNDGTKYNEKFKGRATLTSDKSASTAYMELSSLRSEDTAVYYCARPHFETHAMDYWGQGTLVTVSS VL: DIQMTQSPSSLSASVGDRVTITCKASEDIFNRLAWYQQKPGKAPKLLLYGATSLETGVPSRFSGSGSGTDYTLTISSLQPEDFATYYCQQYWNTWTFGQGTKVEIK	%	24.9
benchmark antibody hRS7 (antibody, V domains shown) VH: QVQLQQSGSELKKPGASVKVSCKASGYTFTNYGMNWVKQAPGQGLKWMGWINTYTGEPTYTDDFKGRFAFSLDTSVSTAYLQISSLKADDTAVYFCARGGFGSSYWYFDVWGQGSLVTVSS VL: DIQLTQSPSSLSASVGDRVSITCKASQDVSIAVAWYQQKPGKAPKLLIYSASYRYTGVPDRFSGSGSGTDFTLTISSLQPEDFAVYYCQQHYITPLTFGAGTKVDIK	%	23.9
#125-1-5 mouse H14-4/L3-4 (antibody, V domains shown) VH: QIQLVQSGPELVKPGASVKMSCKASGYTFTTYVIHWVKQKPGQGLEWIGYINPNNDGTKYNEKFKGKATLISDKSSTTAYMEVRGLTSEDSAVYYCARPHFETHAMDYWGQGTSVTVSS VL: DIQMTQSPSSFSVSLGDSVTITCKASEDIFNRLAWYQQKPGNAPRLLISGATSLETGVPSRFSGGGSGKEYTLSITSLQNEDVATYYCQQYWNTWTFGGGTKLEIK	%	5.5
humanized #125-1-5 Hu2/Lu6 (antibody, V domains shown, Humanized antibody) VH: QVQLVQSGAEVKKPGASVKVSCKASGYTFTTYVIHWVKQKPGQGLEWIGYINPNNDGTKYNEKFKGRVTITRDTSASTAYMELSSLRSEDTAVYYCARPHFETHAMDYWGQGTLVTVSS VL: DIQMTQSPSSLSASVGDRVTITCKASEDIFNRLAWYQQKPGKAPKLLISGATSLETGVPSRFSGSGSGKDYTLTISSLQPEDFATYYCQQYWNTWTFGQGTKVEIK	%	14.1
humanized IgG #125-1-5 Hu3/Lu5 (antibody, V domains shown, also called IgG Hu3/Lu5) VH: QVQLVQSGAEVKKPGASVKVSCKASGYTFTTYVIHWVRQAPGQRLEWMGYINPNNDGTKYNEKFKGKATLTSDKSSTTAYMEVRGLTSEDSAVYYCARPHFETHAMDYWGQGTLVTVSS VL: DIQMTQSPSSLSASVGDRVTITCKASEDIFNRLAWYQQKPGKAPKLLLYGATSLETGVPSRFSGSGSGTDYTLTISSLQPEDFATYYCQQYWNTWTFGQGTKVEIKR	%	14
humanized #125-1-5 Hu1/Lu6 (antibody, V domains shown, Humanized antibody) VH: QVQLVQSGAEVKKPGASVKVSCKASGYTFTTYVIHWVRQAPGQRLEWMGYINPNNDGTKYNEKFKGRVTITRDTSASTAYMELSSLRSEDTAVYYCARPHFETHAMDYWGQGTLVTVSS VL: DIQMTQSPSSLSASVGDRVTITCKASEDIFNRLAWYQQKPGKAPKLLISGATSLETGVPSRFSGSGSGKDYTLTISSLQPEDFATYYCQQYWNTWTFGQGTKVEIK	%	14
